The origin of these recorded values is patent US10738033B2.

- tgt: TrkA(h) (Homo sapiens)
- Construct: purchased Millipore (KinaseProfiler service)
- protocol.summary: KinaseProfiler (Millipore) radiometric kinase inhibition assay
- Assay type: biochemical
- run.conditions: compound concentration 1 μM
value.type: inhibition at 1 µM (%)
Give the value in % but do not write % after it.

These recorded examples may help you get a feel for the data.
# molecule, tgt, inhibition at 1 µM / %
data = [
    ("CN1CCN(c2cc(Nc3cc(C4CC4)[nH]n3)ncn2)C(c2ccccc2)C1 (stereo not drawn)", "TrkA(h) (Homo sapiens)", 79),
    ("Cc1ccccc1C1CCCN1c1cc(Nc2cc(C3CC3)[nH]n2)ncn1 (stereo not drawn)", "TrkA(h) (Homo sapiens)", 92),
    ("CCCc1cc(Nc2cc(N3CCCC3c3ccc(Cl)cc3)ncn2)n[nH]1 (stereo not drawn)", "TrkA(h) (Homo sapiens)", 99),
]

GET /value?item= c1ccc(C2CCCN2c2cc(Nc3cc(C4CC4)[nH]n3)ncn2)cc1 (stereo not drawn) &field=inhibition at 1 µM returns 101

GET /value?item= FC(F)(F)c1ccccc1C1CCCN1c1cc(Nc2cc(C3CC3)[nH]n2)ncn1 (stereo not drawn) &field=inhibition at 1 µM returns 93

GET /value?item= Fc1ccc(C2CCCN2c2cc(Nc3cc(-c4ccccn4)[nH]n3)ncn2)cc1 (stereo not drawn) &field=inhibition at 1 µM returns 30

GET /value?item= FC(F)(F)c1ccc(C2CCCN2c2cc(Nc3cc(C4CC4)[nH]n3)ncn2)cc1 (stereo not drawn) &field=inhibition at 1 µM returns 98

---

- tgt: TrkA(h) (Homo sapiens, UniProt P04629)
- Construct: purchased Millipore (KinaseProfiler service)
- Sequence (P04629 33-796): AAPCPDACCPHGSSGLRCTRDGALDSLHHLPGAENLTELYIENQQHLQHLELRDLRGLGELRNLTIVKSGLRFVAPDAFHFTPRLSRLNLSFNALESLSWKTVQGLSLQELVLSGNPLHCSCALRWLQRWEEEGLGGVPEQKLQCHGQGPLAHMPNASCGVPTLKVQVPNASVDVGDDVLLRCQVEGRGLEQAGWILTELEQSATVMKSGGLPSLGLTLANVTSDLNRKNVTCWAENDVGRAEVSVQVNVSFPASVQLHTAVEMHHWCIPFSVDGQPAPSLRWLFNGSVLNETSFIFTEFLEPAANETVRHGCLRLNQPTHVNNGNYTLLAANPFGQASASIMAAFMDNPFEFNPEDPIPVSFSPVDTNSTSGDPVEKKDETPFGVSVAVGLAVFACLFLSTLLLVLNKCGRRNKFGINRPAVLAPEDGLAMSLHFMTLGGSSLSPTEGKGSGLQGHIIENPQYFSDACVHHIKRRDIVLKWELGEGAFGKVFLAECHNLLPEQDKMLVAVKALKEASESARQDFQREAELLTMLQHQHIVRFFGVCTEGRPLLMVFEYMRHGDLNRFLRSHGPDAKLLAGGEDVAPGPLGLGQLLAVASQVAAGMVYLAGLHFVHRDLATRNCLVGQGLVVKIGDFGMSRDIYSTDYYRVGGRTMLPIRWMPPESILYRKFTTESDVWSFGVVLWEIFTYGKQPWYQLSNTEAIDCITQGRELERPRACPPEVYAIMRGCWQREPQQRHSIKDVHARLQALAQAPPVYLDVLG
- protocol.summary: KinaseProfiler (Millipore) radiometric kinase inhibition assay
- Type: biochemical
- run.conditions: compound concentration 1 μM
value.type: inhibition at 1 µM (%)
Give the value in % but do not write % after it.

These recorded examples may help you get a feel for the data.
# molecule, inhibition at 1 µM (%)
data = [
    ("CN(C)c1cccc(C2CCCN2c2cc(Nc3cc(C4CC4)[nH]n3)ncn2)c1 (centres unmarked)", 101),
    ("COc1cccc(C2CCCN2c2cc(Nc3cc(C4CC4)[nH]n3)ncn2)c1 (centres unmarked)", 91),
    ("Clc1ccccc1C1CCCN1c1cc(Nc2cc(-c3ccco3)[nH]n2)ncn1 (centres unmarked)", 47),
    ("Fc1cccc(C2CCCN2c2cc(Nc3cc(C4CC4)[nH]n3)ncn2)c1 (centres unmarked)", 103),
    ("Clc1cccc(C2CCCN2c2cc(Nc3cc(C4CC4)[nH]n3)ncn2)c1 (centres unmarked)", 101),
]

GET /value?item= Fc1ccccc1C1CCCN1c1cc(Nc2cc(C3CC3)[nH]n2)ncn1 (centres unmarked) &field=inhibition at 1 µM returns 95

GET /value?item= Fc1ccc(C2CCCN2c2cc(Nc3n[nH]c4ccccc34)ncn2)cc1 (centres unmarked) &field=inhibition at 1 µM returns 79

GET /value?item= N#Cc1cnc(Nc2cc(N3CCCC3c3ccc(F)cc3)ncn2)s1 (centres unmarked) &field=inhibition at 1 µM returns 7

---

Items are presented alongside their recorded inhibition at 1 µM.
- tgt: TrkA(h) (Homo sapiens)
- Construct: purchased Millipore (KinaseProfiler service)
- protocol.summary: KinaseProfiler (Millipore) radiometric kinase inhibition assay
- Assay type: biochemical
- run.conditions: compound concentration 1 μM
Give the value in % but do not write % after it.

# compound, inhibition at 1 µM / %
measured = [
    ("Fc1ccc(C2CCCN2c2ncnc(Nc3cc(C4CC4)[nH]n3)c2F)cc1 (stereo not drawn)", 51),
    ("FC(F)(F)c1cccc(C2CCCN2c2cc(Nc3cc(C4CC4)[nH]n3)ncn2)c1 (stereo not drawn)", 61),
    ("CC(C)(C)OC(=O)N1CCC(c2cc(Nc3cc(N4CCCC4c4ccccc4Cl)ncn3)n[nH]2)CC1 (stereo not drawn)", 6),
]

GET /value?item= OC1CC(c2cc(F)ccc2F)N(c2cc(Nc3cc(C4CC4)[nH]n3)ncn2)C1 (stereo not drawn) &field=inhibition at 1 µM returns 96

GET /value?item= Clc1ccc(C2CCCN2c2cc(Nc3cc(C4CC4)[nH]n3)ncn2)cc1Cl (stereo not drawn) &field=inhibition at 1 µM returns 100

GET /value?item= CC(C)Oc1cc(Nc2cc(N3CCCC3c3ccccc3Cl)ncn2)n[nH]1 (stereo not drawn) &field=inhibition at 1 µM returns 96

GET /value?item= Nc1nc(Nc2cc(C3CC3)[nH]n2)cc(N2CCCC2c2ccc(F)cc2)n1 (stereo not drawn) &field=inhibition at 1 µM returns 100

GET /value?item= CN1CCN(c2ccc(Nc3cc(N4CCCC4c4ccc(F)cc4)ncn3)nc2)CC1 (stereo not drawn) &field=inhibition at 1 µM returns -12

GET /value?item= Cc1ccc(C2CCCN2c2ncnc(Nc3cc(C4CC4)[nH]n3)c2C#N)cc1 (stereo not drawn) &field=inhibition at 1 µM returns -6
